- study-system: CaSR (Rattus norvegicus)
- Construct: expressed in transfected cells; host or cells: CHO (Chinese hamster ovary) cells
- Sequence (P48442 20-1079): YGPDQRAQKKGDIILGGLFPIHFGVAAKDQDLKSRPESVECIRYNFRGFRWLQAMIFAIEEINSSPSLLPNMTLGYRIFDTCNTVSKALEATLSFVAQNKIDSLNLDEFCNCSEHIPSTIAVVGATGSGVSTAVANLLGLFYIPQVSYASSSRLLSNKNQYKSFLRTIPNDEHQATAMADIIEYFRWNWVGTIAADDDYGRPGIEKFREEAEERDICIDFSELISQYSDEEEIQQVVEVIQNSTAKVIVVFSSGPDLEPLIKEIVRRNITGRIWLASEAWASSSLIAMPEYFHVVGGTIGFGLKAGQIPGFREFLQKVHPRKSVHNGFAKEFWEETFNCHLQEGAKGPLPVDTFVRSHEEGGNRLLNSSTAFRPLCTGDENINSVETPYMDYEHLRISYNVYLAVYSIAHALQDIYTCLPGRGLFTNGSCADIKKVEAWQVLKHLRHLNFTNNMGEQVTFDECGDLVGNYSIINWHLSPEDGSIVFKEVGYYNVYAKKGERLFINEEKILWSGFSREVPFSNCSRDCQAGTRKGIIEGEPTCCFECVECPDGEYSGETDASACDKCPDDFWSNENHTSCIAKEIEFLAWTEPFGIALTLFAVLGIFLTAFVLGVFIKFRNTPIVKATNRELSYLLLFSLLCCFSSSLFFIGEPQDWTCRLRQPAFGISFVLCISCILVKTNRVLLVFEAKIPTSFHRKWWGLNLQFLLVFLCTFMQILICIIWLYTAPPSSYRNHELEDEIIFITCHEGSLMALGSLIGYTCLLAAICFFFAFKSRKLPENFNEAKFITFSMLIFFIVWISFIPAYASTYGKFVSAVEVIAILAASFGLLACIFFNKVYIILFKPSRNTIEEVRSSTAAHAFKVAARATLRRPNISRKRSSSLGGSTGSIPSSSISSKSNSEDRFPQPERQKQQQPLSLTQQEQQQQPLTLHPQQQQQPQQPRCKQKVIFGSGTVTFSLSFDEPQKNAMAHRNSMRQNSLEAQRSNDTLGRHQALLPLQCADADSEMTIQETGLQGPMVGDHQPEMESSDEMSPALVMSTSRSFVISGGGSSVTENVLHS
- procedure-summary: Accumulation of tritiated inositol phosphates [3H]IP induced by 9 mM extracellular Ca2+ in transfected CHO(CaSR) cells
- Type: cell-based
- settings: 0.5 h; compounds at 10 μM; induced by 9 mM Ca2+; control = 9 mM (Ca2+)e alone = 100; CHO(CaSR) cells; mean of 2 to 4 experiments; read-out: Accumulation of [^3H]IP % relative to the control
Listing: remaining activity at 10 µM of selected compounds
Express the result in % but write the number alone.

Below: 5 compounds and their reported remaining activity at 10 µM.
CC(N[C@H]1CCCCC1NCc1ccc(F)cc1)c1cccc2ccccc12.Cl.Cl (stereo partly drawn) : 119
COc1ccc(S(=O)(=O)NC2CCCC[C@@H]2NC(C)c2cccc3ccccc23)cc1OC (stereo partly drawn) : 64
CC(N[C@H]1CCCCC1NS(=O)(=O)c1cccc(Cl)c1)c1cccc2ccccc12 (stereo partly drawn) : 40
CC(N[C@H]1CCCCC1NS(=O)(=O)c1ccc(Cl)c(Cl)c1Cl)c1cccc2ccccc12 (stereo partly drawn) : 42
COc1ccc(S(=O)(=O)NC2CCCC[C@@H]2NC(C)c2cccc3ccccc23)cc1.Cl (stereo partly drawn) : 37

Request: Look up remaining activity at 10 µM for this compound: CC(N[C@H]1CCCCC1NS(=O)(=O)c1ccc(C(F)(F)F)cc1)c1cccc2ccccc12 (stereo partly drawn)
Response: 21

Request: Look up remaining activity at 10 µM for this compound: COc1ccc(S(=O)(=O)NC2CC=CC[C@@H]2NC(C)c2cccc3ccccc23)cc1 (stereo partly drawn)
Response: 75

Request: Look up remaining activity at 10 µM for this compound: COc1ccc(OC)c(S(=O)(=O)NC2CCCC[C@@H]2NC(C)c2cccc3ccccc23)c1 (stereo partly drawn)
Response: 100

Request: Look up remaining activity at 10 µM for this compound: CC(N[C@H]1CCCCC1NS(=O)(=O)c1ccc(OC(F)(F)F)cc1)c1cccc2ccccc12.Cl (stereo partly drawn)
Response: 18

Request: Look up remaining activity at 10 µM for this compound: CC(N[C@H]1CCCCC1NS(=O)(=O)c1ccc(Cl)cc1)c1cccc2ccccc12 (stereo partly drawn)
Response: 28

* * *

- study-system: CaSR (Rattus norvegicus)
- Construct: expressed in transfected cells; host or cells: CHO (Chinese hamster ovary) cells
- procedure-summary: Accumulation of tritiated inositol phosphates [3H]IP induced by 9 mM extracellular Ca2+ in transfected CHO(CaSR) cells
- Format: cell-based
- settings: 0.5 h; compounds at 10 μM; induced by 9 mM Ca2+; control = 9 mM (Ca2+)e alone = 100; CHO(CaSR) cells; mean of 2 to 4 experiments; read-out: Accumulation of [^3H]IP % relative to the control
result-type: remaining activity at 10 µM
Answer by giving the amount and then stating its unit.

Below: 4 compounds and their reported remaining activity at 10 µM.
CC(N[C@H]1CCCCC1NS(=O)(=O)c1ccc([N+](=O)[O-])cc1)c1cccc2ccccc12 (some centres unmarked) : 43%
CC(N[C@H]1CCCCC1NS(=O)(=O)c1ccc2ccccc2c1)c1cccc2ccccc12 (some centres unmarked) : 39%
CC(N[C@H]1CCCCC1NS(=O)(=O)c1ccccc1Cl)c1cccc2ccccc12 (some centres unmarked) : 74%
CC(N[C@H]1CCCCC1NS(=O)(=O)c1ccccc1)c1cccc2ccccc12 (some centres unmarked) : 56%

Request: Look up remaining activity at 10 µM for this compound: CC(N[C@H]1CCCCC1NCc1ccccc1Cl)c1cccc2ccccc12.Cl.Cl (some centres unmarked)
Response: 110%
